target: Calmodulin-1 (Homo sapiens, UniProt P0DP23); assay: Inhibition of human recombinant calmodulin assessed as inhibition of calmodulin-sensitive cAMP phosphodiesterase activation after 15 mins by spectrophotometric analysis
readout name: inhibition

O=c1c(O)c(-c2ccc(O)c(O)c2)oc2cc(O)cc(O)c12 = Dose-dependent effect
O=c1cc(-c2ccccc2)oc2ccccc12 = Dose-dependent effect
O=C1C[C@@H](c2ccc(O)cc2)Oc2cc(O)cc(O)c21 = Dose-dependent effect
O=c1cc(-c2ccccc2)oc2cc(O)ccc12 [7-HYDROXYFLAVONE] = Dose-dependent effect
O=c1c(O)c(-c2ccccc2)oc2ccccc12 = Dose-dependent effect

Task: Record request: inhibition value, item O=c1cc(-c2ccccc2)oc2ccc(O)cc12 [6-HYDROXYFLAVONE]
Output: Dose-dependent effect

Task: Then what about the compound `O=c1cc(-c2ccccc2)oc2cc(O)cc(O)c12` ?
Output: Dose-dependent effect

====

system: Aorta; test: Vasorelaxant activity in Wistar rat endothelium-intact thoracic aortic ring assessed as inhibition of noradrenaline-induced contraction treated after noradrenaline challenge measured after 60 mins; type: functional, tissue-based; conditions: 1 h
Catalogue of IC50 values
# output: bare number, implied unit µM

Record excerpt, results attached:
O=c1cc(-c2ccccc2)oc2cc(O)cc(O)c12 [CHRYSIN] = 75.7
O=c1cc(-c2ccccc2)oc2ccc(O)cc12 [6-HYDROXYFLAVONE] = 20.8
O=c1cc(-c2ccccc2)oc2ccccc12 [FLAVONE] = 46
O=c1cc(-c2ccccc2)oc2cc(O)ccc12 [7-HYDROXYFLAVONE] = 37.8
O=c1c(O)c(-c2ccccc2)oc2ccccc12 [FLAVONOL] = 204

Task: Enter reported IC50 observed with Aorta for C[N+](C)(C)CCOC(N)=O [CARBACHOL]
Output: 0.79

Task: Then what about the compound O=c1c(O)c(-c2ccc(O)c(O)c2)oc2cc(O)cc(O)c12 [QUERCETIN] ?
Output: 162

====

system: Aorta; test: Vasorelaxant activity in Wistar rat endothelium-denuded thoracic aortic ring assessed as inhibition of noradrenaline-induced contraction treated after noradrenaline challenge measured after 60 mins relative to control; assay type: functional; conditions: 1 h
Label t when Emax is strictly below 40%; otherwise label f.

Study these solved cases before continuing.
COC(=O)C1=C(C)NC(C)=C(C(=O)OC)C1c1ccccc1[N+](=O)[O-] [NIFEDIPINE] = f
O=c1cc(-c2ccccc2)oc2ccccc12 [FLAVONE] = f

Task: Confirm or reject: Emax of O=c1c(O)c(-c2ccccc2)oc2ccccc12 [FLAVONOL] lies strictly below 40%
Output: t

Task: Then what about the compound O=c1cc(-c2ccccc2)oc2cc(O)cc(O)c12 [CHRYSIN] ?
Output: t

Task: Then what about the compound O=c1c(O)c(-c2ccc(O)c(O)c2)oc2cc(O)cc(O)c12 [QUERCETIN] ?
Output: f

Task: Then what about the compound O=c1cc(-c2ccccc2)oc2ccc(O)cc12 [6-HYDROXYFLAVONE] ?
Output: f

====

target: Calmodulin-1 (Homo sapiens); test: Ratio of chlorpromazine IC50 to compound IC50 for human recombinant calmodulin
Catalogue of Ratio IC50 values
# answer = number (no unit)

O=c1c(O)c(-c2ccc(O)c(O)c2)oc2cc(O)cc(O)c12 [QUERCETIN] = 2.82
O=c1cc(-c2ccccc2)oc2cc(O)ccc12 [7-HYDROXYFLAVONE] = 0.54
O=c1cc(-c2ccccc2)oc2cc(O)cc(O)c12 [CHRYSIN] = 1.03
O=c1cc(-c2ccccc2)oc2ccc(O)cc12 [6-HYDROXYFLAVONE] = 3.89
O=c1c(O)c(-c2ccccc2)oc2ccccc12 [FLAVONOL] = 0.36

Task: Enter reported Ratio IC50 observed with Calmodulin-1 (Homo sapiens) for O=c1cc(-c2ccccc2)oc2ccccc12 [FLAVONE]
Output: 0.34

====

biological target: Calmodulin-1 (Homo sapiens); experiment: Inhibition of human recombinant calmodulin assessed as inhibition of calmodulin-sensitive cAMP phosphodiesterase activation after 15 mins by spectrophotometric analysis
Catalogue of IC50 values
State the result as a value with its unit after it.

O=c1cc(-c2ccccc2)oc2ccc(O)cc12 [6-HYDROXYFLAVONE] = 5.17 µM

Task: Record request: IC50 value, item O=c1cc(-c2ccccc2)oc2cc(O)ccc12 [7-HYDROXYFLAVONE]
Output: 37.1 µM

Task: Then what about the compound `O=c1c(O)c(-c2ccccc2)oc2ccccc12` ?
Output: 55.2 µM

Task: Then what about the compound `O=c1cc(-c2ccccc2)oc2cc(O)cc(O)c12` ?
Output: 33.4 µM

Task: Then what about the compound `O=c1cc(-c2ccccc2)oc2ccccc12` ?
Output: 102 µM

Task: Then what about the compound `O=c1c(O)c(-c2ccc(O)c(O)c2)oc2cc(O)cc(O)c12` ?
Output: 13 µM

====

tested on: Aorta; assay: Vasorelaxant activity in Wistar rat endothelium-intact thoracic aortic ring assessed as inhibition of noradrenaline-induced contraction treated after noradrenaline challenge measured after 60 mins relative to control; assay type: functional; conditions: 1 h
readout name: Emax (%)
# output: bare number, implied unit %

Record excerpt, results attached:
C[N+](C)(C)CCOC(N)=O = 88.6
O=c1c(O)c(-c2ccccc2)oc2ccccc12 = 67.8
O=c1cc(-c2ccccc2)oc2cc(O)ccc12 [7-HYDROXYFLAVONE] = 80.6
O=c1cc(-c2ccccc2)oc2cc(O)cc(O)c12 = 44.8
O=c1cc(-c2ccccc2)oc2ccccc12 = 98.6

Task: Record request: Emax value, item `O=c1c(O)c(-c2ccc(O)c(O)c2)oc2cc(O)cc(O)c12`
Output: 83.2

Task: Then what about the molecule O=c1cc(-c2ccccc2)oc2ccc(O)cc12 [6-HYDROXYFLAVONE] ?
Output: 105
